assayProcedure: NCI Yeast Anticancer Drug Screen. Data for the sgs1 mgt1 strain (AID 161)
cond: S. cerevisiae sgs1 mgt1 strain, at 50.0 µM (retest, dose inferred, filed as 5.0), hits give high values
The panel holds about 79,000 compounds, 15% with a hit somewhere; the sample as a whole holds those more often.
Each record's class is read off its growth inhibition using these ranges: small value (below 20%), mid value (20% to below 70%), large value (70% or more)

> print(dat)
                                    molecule  classification
 1  CC(C)[N+]([O-])(CCCNc1c2ccccc2nc2cccc([N+](=O)[O-])c12)C(C)C     large value
 2  Nc1ccn(C2OC(CO)C3[O][Sn]([c]4ccccc4)([c]4ccccc4)[O]C32)c(=O)n1 (centres undefined)       mid value
 3                 Cn1c(=O)c2ccccc2c2ccccc21       mid value
 4  CCCCCCCCCCCCCCCCCCN(C)CC(COP(=O)([O-])OCC[N+](C)(C)C)OC (centres undefined)     large value
 5  COc1ccc(/C=C2\SC(=S)N(/C=C/c3nc4ccccc4[nH]c3=O)C2=O)cc1OC       mid value
 6  O=C(CCCN1CCC(O)(c2ccc(Cl)cc2)CC1)c1ccc(F)cc1     large value
 7   COC(=O)c1ccc(CCC2=CC(=O)C(Br)=CC2=O)cc1     small value
 8  CCS(=O)(=O)c1ccc(/C=C/C=N/NC(=S)NCC(C)C)cc1       mid value
 9  O=C1OC(CCl)CN1/N=C/c1ccc([N+](=O)[O-])o1 (centres undefined)     large value
10  CNC(=O)OCc1c(COC(=O)NC)c(-c2ccc(-c3ccccc3)cc2)n(C)c1C       mid value
11     Cc1cc(CO)c(O)c(CNCc2cc(C)cc(CO)c2O)c1       mid value
12  COC(=O)CCNc1c2ccccc2nc2cccc([N+](=O)[O-])c12     large value
13               CSC(=S)N/N=C(\C)c1cccc(C)n1     large value
14  CCOC(=O)C1=C(C(=O)c2ccccc2)C(c2ccccc2[N+](=O)[O-])C(C(=O)c2ccccc2)=C(C(=O)OCC)N1     small value
15        [O-][n+]1c2ccc(O)cc2nc2ccc(Cl)cc21     small value
16              CCOc1ccc2c(c1)c(CC(=O)O)cn2C       mid value
17                        Cc1ccc2ccc(O)cc2c1       mid value
18  CCCCCCCCC/C=C/C=C/C(=O)NCC(=O)NC1C(O)C(O)C(Nc2ncnc3nc[nH]c23)OC1C(O)CO (centres undefined)     small value
19          NC(N)=N/N=C\c1c2ccccc2cc2ccccc12       mid value
20              O=C1c2ccccc2-c2nc3ccccc3nc21       mid value
21                    COc1cccc2nc3ccccc3nc12     small value
22  Cc1ccc(Nc2nc3c(=O)n(C)c(=O)n(C)c3nc2Nc2ccc(C)cc2)cc1       mid value
23           c1ccc2c(c1)NC(NC1Nc3ccccc3N1)N2       mid value
24  O=C(OCC=C1CCCC1)c1cc([N+](=O)[O-])cc([N+](=O)[O-])c1     large value
25  O=C1OC(=O)C2CCCC3CCCC1C32 (centres undefined)     small value
26           CN(C)c1ccc(C(C#N)=C(C#N)C#N)cc1       mid value
27  CC(C)C1=CCC2C(=C1)CCC1C(C)(C(=O)O)CCCC21C (centres undefined) (tested in a mixture with another compound)     large value
28  N#CC(C(=O)Nc1ccccc1)C1=C(Cl)C(=O)c2ccccc2C1=O (centres undefined)     large value
29    Nc1ncncc1C(C1=C(O)COC1=O)C1=C(O)COC1=O     small value
30       CC(C)(Br)C(=O)/C=C/c1ccc(Cl)c(Cl)c1     large value
31             COc1ccc(O)c(/C=N\Nc2ccccc2)c1     small value
32      Fc1ccc(NC(=S)SCc2ccc(Cl)c(Cl)c2)cc1F     large value
33  N/C(=N\OC(=O)NC(Cl)=C(Cl)Cl)c1cc(C(F)(F)F)cc(C(F)(F)F)c1     large value
34        CC(=O)OCCOCNC(=S)N/N=C(\C)c1cnccn1       mid value
35            CCC(=O)Oc1c(Cl)cc(Cl)c2ccccc12       mid value
36  CC(C)(CN1CCCCC1)C(=O)CC(SCCS(=O)(=O)O)c1ccc(Br)cc1 (centres undefined)     small value
37  COC(=O)C1=C(C)NC(C)=C(C(=O)OC)C1c1cccc(/[N+]([O-])=C/c2ccccc2)c1       mid value
38            Cc1nc(-c2ccccc2)c(-c2ccccc2)s1     large value
39          COCCOC(=O)CCn1cc(F)c(=O)[nH]c1=O     large value
40  O=C(NCCCNCCCNC(=O)c1cc(-c2ccccc2)nc2ccccc12)c1cc(-c2ccccc2)nc2ccccc12     small value
41  CO[C@H]1C[C@](C)(O)Cc2cc3c(c(O)c21)C(=O)c1c(O)cc2c(c1C3=O)O[C@@H]1O[C@@]2(C)[C@H](O)[C@@H](N(C)C)[C@@H]1O     small value
